Where do these numbers come from? They come from the supplement of paper PMC9549728.

Tested on: murine normal gastric organoid
Experiment: IC50 (viability, PrestoBlue) (log10 nM)
Conditions: exposure time: 72 h
The label 1.0 is reserved for IC50 (log10 nM) strictly under 3; 0.0 covers values equal to or above it.

| compound | class |
| --- | --- |
| CC(C)n1nc(-c2ccc3oc(N)nc3c2)c2c(N)ncnc21 | 1.0 |

Is IC50 (log10 nM) of CC1(C)CCC(CN2CCN(c3ccc(C(=O)NS(=O)(=O)c4ccc(NCC5CCOCC5)c([N+](=O)[O-])c4)c(Oc4cnc5[nH]ccc5c4)c3)CC2)=C(c2ccc(Cl)cc2)C1 strictly below 3?
0.0

Here's an entry: COc1cc(OC)c(/C=C/S(=O)(=O)Cc2ccc(OC)c(NCC(=O)O)c2)c(OC)c1 [Rigosertib sodium] . Is its IC50 (log10 nM) below 3?
1.0
